src = the supplement of paper PMC7877785

I'd be grateful if you could share measured self-splicing fitness (ln) for these entries.
# Protocol Description: self-splicing fitness, log relative to wild type (ln ratio); higher = more splicing; Tetrahymena group I intron in knt gene, E. coli kanamycin selection, DiMSum; sequences stand for … in CUCUCU…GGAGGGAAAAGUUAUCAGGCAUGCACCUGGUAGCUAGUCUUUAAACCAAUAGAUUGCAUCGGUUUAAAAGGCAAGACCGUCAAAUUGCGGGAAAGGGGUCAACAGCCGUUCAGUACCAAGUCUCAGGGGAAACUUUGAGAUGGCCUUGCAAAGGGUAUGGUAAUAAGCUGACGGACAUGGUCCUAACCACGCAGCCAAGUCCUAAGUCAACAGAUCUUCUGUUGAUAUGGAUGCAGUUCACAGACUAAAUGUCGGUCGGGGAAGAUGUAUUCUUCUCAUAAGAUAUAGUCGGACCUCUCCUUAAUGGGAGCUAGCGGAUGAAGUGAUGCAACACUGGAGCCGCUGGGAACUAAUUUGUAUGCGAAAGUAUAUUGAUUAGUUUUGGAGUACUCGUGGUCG;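 further: selection with 25 µg/mL kanamycin versus none on LB agar overnight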
# Experimental Conditions: 37 °C
Numbers only.

Check out these entries, answers already filled in.
Report measured self-splicing fitness (ln); entry is `UUUUAGCAAUAUUACGUACA` -0.143

Report measured self-splicing fitness (ln); entry is `GAGAAGCAAUAUUACGAAUA` -0.917

Report measured self-splicing fitness (ln); entry is `CUAUAGCAAUAUUACGCGAU` -1.5

Consider the following items and state reported self-splicing fitness (ln) for each.
1. CGCCAGCAAUAUUACGCGUG
2. UUUCAGCAAUAUUACGUGAG
3. AUGUAGCAAUAUUACGAAAA
4. GCCUAGCAAUAUUACGCCCU
5. AUCUAGCAAUAUUACGGGUA

1: -0.717; 2: -0.623; 3: -0.547; 4: 0.335; 5: -1.49
